Test: Plasma protein binding in human
Assay type: ADME, cell-free
Conditions: read-out: PPB (converted)
Reported values of fraction unbound for individual entries

[
  {
    "Compound": "C[C@H](N[C@@H](CCc1ccccc1)C(=O)O)C(=O)N1C[C@@H](NC(=O)C[C@H](N)Cc2cc(F)c(F)cc2F)C[C@H]1C(=O)O",
    "fraction unbound": 0.707
  },
  {
    "Compound": "CC[C@H](N[C@@H](CCc1ccccc1)C(=O)O)C(=O)N1C[C@@H](NC(=O)C[C@H](N)Cc2cc(F)c(F)cc2F)C[C@H]1C(=O)O",
    "fraction unbound": 0.636
  },
  {
    "Compound": "C[C@H](N[C@@H](CCc1ccccc1)C(=O)O)C(=O)N1CCC[C@H]1C(=O)O [ENALAPRILAT ANHYDROUS]",
    "fraction unbound": 0.341
  },
  {
    "Compound": "CCCC[C@H](N[C@@H](CCc1ccccc1)C(=O)O)C(=O)N1C[C@@H](NC(=O)C[C@H](N)Cc2cc(F)c(F)cc2F)C[C@H]1C(=O)O",
    "fraction unbound": 0.327
  },
  {
    "Compound": "N[C@@H](CC(=O)N1CCn2c(nnc2C(F)(F)F)C1)Cc1cc(F)c(F)cc1F",
    "fraction unbound": 0.53
  },
  {
    "Compound": "CCC[C@H](N[C@@H](CCc1ccccc1)C(=O)O)C(=O)N1C[C@@H](NC(=O)C[C@H](N)Cc2cc(F)c(F)cc2F)C[C@H]1C(=O)O",
    "fraction unbound": 0.597
  }
]

###

Test system: Liver
Assay: Stability in human liver microsomes
Type: ADME, microsome

[
  {
    "Molecule Smiles": "C[C@H](N[C@@H](CCc1ccccc1)C(=O)O)C(=O)N1C[C@@H](NC(=O)C[C@H](N)Cc2cc(F)c(F)cc2F)C[C@H]1C(=O)O",
    "Stability": "Stable"
  },
  {
    "Molecule Smiles": "CC[C@H](N[C@@H](CCc1ccccc1)C(=O)O)C(=O)N1C[C@@H](NC(=O)C[C@H](N)Cc2cc(F)c(F)cc2F)C[C@H]1C(=O)O",
    "Stability": "Stable"
  },
  {
    "Molecule Smiles": "CCC[C@H](N[C@@H](CCc1ccccc1)C(=O)O)C(=O)N1C[C@@H](NC(=O)C[C@H](N)Cc2cc(F)c(F)cc2F)C[C@H]1C(=O)O",
    "Stability": "Stable"
  },
  {
    "Molecule Smiles": "CCCC[C@H](N[C@@H](CCc1ccccc1)C(=O)O)C(=O)N1C[C@@H](NC(=O)C[C@H](N)Cc2cc(F)c(F)cc2F)C[C@H]1C(=O)O",
    "Stability": "Stable"
  }
]

###

Reported values of AUC(0-inf) for individual entries
Assay: AUC (0 to infinity) in Wistar rat plasma at 30 mg/kg, po
Assay type: ADME, organism-based
Parameters: dose 30 mg/kg, time infinity, route oral
Experimental Endpoint: AUC(0-inf)

[
  {
    "Molecule Smiles": "CC[C@H](N[C@@H](CCc1ccccc1)C(=O)O)C(=O)N1C[C@@H](NC(=O)C[C@H](N)Cc2cc(F)c(F)cc2F)C[C@H]1C(=O)O",
    "Experimental Result": "2.86 µg·h/mL"
  },
  {
    "Molecule Smiles": "C[C@H](N[C@@H](CCc1ccccc1)C(=O)O)C(=O)N1C[C@@H](NC(=O)C[C@H](N)Cc2cc(F)c(F)cc2F)C[C@H]1C(=O)O",
    "Experimental Result": "1.17 µg·h/mL"
  },
  {
    "Molecule Smiles": "CCC[C@H](N[C@@H](CCc1ccccc1)C(=O)O)C(=O)N1C[C@@H](NC(=O)C[C@H](N)Cc2cc(F)c(F)cc2F)C[C@H]1C(=O)O",
    "Experimental Result": "23.5 µg·h/mL"
  },
  {
    "Molecule Smiles": "CCCC[C@H](N[C@@H](CCc1ccccc1)C(=O)O)C(=O)N1C[C@@H](NC(=O)C[C@H](N)Cc2cc(F)c(F)cc2F)C[C@H]1C(=O)O",
    "Experimental Result": "16.8 µg·h/mL"
  }
]
